# measurement_target: T1, membrane-bound full-length human CD89 (human, UniProt P24071 22-287)
# T1 construct: on stably or transiently transfected HEK293F cells; also called FcalphaRI; huCD89
# assay_procedure: FACS, HEK293F-huCD89, 4C +NaN3, Ab 10 ug/mL then IgA; competitor heat-aggr serum IgA
readout_name: percent IgA binding

percent IgA binding for mouse anti-human CD89-specific antibody 10E7 (antibody, mouse IgG1, V domains shown) VH: EVQLVESGGGLVQPGGSLKLSCAASGLTFSSYGMSWVRQTPDKRLELVATINGNGDITYYPDSVKGRFTISRDNAKNTLYLQMSSLKSEDTAMYYCARDYDYDYAMDYWGQGTSVTVSS VL: DIQMTQSTSSLSASLGDSVTISCRASQDIINYLNWYQQKPDGTVKLLIYYTSRLHSGVPSRFSGSGSGTEYSLTVSNLEKEDIATYFCQQGKTLPYTFGGGTKLEIK is 0 to 25%

Source: patent US20210388084A1
